assayedTarget: JAK3(JH1domain-catalytic) (Homo sapiens, UniProt P52333)
Sequence (P52333 813-1124 limits assumed): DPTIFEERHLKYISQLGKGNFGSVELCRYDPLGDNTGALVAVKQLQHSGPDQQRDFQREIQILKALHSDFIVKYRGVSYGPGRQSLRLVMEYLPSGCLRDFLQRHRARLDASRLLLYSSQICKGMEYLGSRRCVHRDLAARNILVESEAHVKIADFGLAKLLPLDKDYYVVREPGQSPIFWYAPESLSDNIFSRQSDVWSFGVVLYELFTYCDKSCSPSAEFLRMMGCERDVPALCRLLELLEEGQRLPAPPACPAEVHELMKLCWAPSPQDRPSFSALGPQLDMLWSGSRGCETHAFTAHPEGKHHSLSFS
measurementNotes: KINOMEscan competition binding
recordedConditions: read-out: %Inh JAK3(JH1domain-catalytic)
measuredMetric: inhibition at 1 µM (%)

[[record]]
molecule = "Cn1cc(-c2cnc(N)c3c(-c4ccc5c(c4)CCN5C(=O)Cc4ccccc4)csc23)cn1 [UNC10225012A]"
unitsofmeasure = "%"
datavalue = 0

[[record]]
molecule = "CS(=O)(=O)Cc1ccc(Nc2nccc(-c3c(-c4cccc(NC(=O)C5CCCCC5)c4)nn4ncccc34)n2)cc1 [UNC10225159A]"
unitsofmeasure = "%"
datavalue = 43

[[record]]
molecule = "Cc1ccc(NC(=O)Nc2cccc(C(F)(F)F)c2)cc1 [UNC10225187A]"
unitsofmeasure = "%"
datavalue = 0

[[record]]
molecule = "COc1cccc(OC)c1C(=O)Nc1cccc(-c2nn3ccccc3c2-c2ccnc(Nc3cccc(F)c3)n2)c1 [UNC10225310A]"
unitsofmeasure = "%"
datavalue = 0

[[record]]
molecule = "O=c1cc(N2CCOCC2)nc2n(Cc3cccc(Cl)c3Cl)c(C3CC3)nn12 [UNC10225469A]"
unitsofmeasure = "%"
datavalue = 0

